Values were extracted from patent US6737383B1.

Test system: wheat
Assay: Test B pre/postemergence wheat
Assay type: in vivo, Triticum aestivum
Conditions: Preemergence, Rate 500 g/ha; scale 0 (no effect) to 10 (complete control)
OBSERVED_PROPERTY: Wheat plant response rating
Give your answer as a number; write no unit.

>  <SMILES_INPUT>
Cc1ccc(N(C(=O)n2oc(=O)n(-c3ccccc3C)c2=O)C(C)C)cc1

>  <OBSERVED_PROPERTY>
Wheat plant response rating

>  <NUMERIC_READOUT>
0

$$$$
>  <SMILES_INPUT>
CCN(CC)C(=O)n1oc(=O)n(-c2c(C)cccc2C)c1=O

>  <OBSERVED_PROPERTY>
Wheat plant response rating

>  <NUMERIC_READOUT>
0

$$$$
>  <SMILES_INPUT>
CC(C)N(C(=O)n1oc(=O)n(-c2cnn(C)c2Cl)c1=O)c1ccc(F)cc1

>  <OBSERVED_PROPERTY>
Wheat plant response rating

>  <NUMERIC_READOUT>
2

$$$$
>  <SMILES_INPUT>
Cc1cccc(C(C)C)c1-n1c(=O)on(C(=O)N(c2ccc(Cl)cc2)C(C)C)c1=O

>  <OBSERVED_PROPERTY>
Wheat plant response rating

>  <NUMERIC_READOUT>
0

$$$$

Moving on to the next compound.
Inquiry: Which Wheat plant response rating is listed for `CC(C)N(C(=O)n1oc(=O)n(-c2c(Cl)cccc2Cl)c1=O)c1ccc(F)cc1` ?
Reply text: 0
